- Test system: CAKI-1 renal
- test: NCI-60 one-dose screen, 48 h (100 = growth as untreated, 0 = no growth, -100 = all killed)
- condition_parameters: 10 µM unless noted
Compounds without any hit were thinned out: in the full panel of roughly 83,000, 20% have a hit.
Classify: criterion met when growth is strictly less than 30%; criterion not met when growth is not.

molecule	test_system	group
COc1cc2c(c(OC)c1OC)C(=O)CC(c1cccc(NC(=O)c3cc(NC(=O)[C@@H](N)CO)ccc3C)c1)O2 (stereo partly drawn)	CAKI-1 renal	criterion not met
CCOC(=O)C1=C(N)N(c2ccccc2)C2=C(C(=O)CC(C)(C)C2)C1c1cccc(Cl)c1Cl (stereo not drawn)	CAKI-1 renal	criterion not met
COc1ccc(-c2nc3cc(C)ccc3n2CC(=O)N=Nc2c(O)[nH]c3ccccc23)cc1	CAKI-1 renal	criterion not met
Nc1n[nH]c2cccc(C#Cc3cccc(NC(=O)c4cccc(Cl)c4)c3)c12	CAKI-1 renal	criterion met
O=C(Cn1c(/C=C/c2ccccc2)nc2ccccc2c1=O)Nc1ccccc1	CAKI-1 renal	criterion met
CCN1C(=O)N(CC)C2NNC(Sc3c(C(=O)O)c4ccccc4n(C4CCCC4)c3=O)=NC21 (stereo not drawn)	CAKI-1 renal	criterion met

Enquiry: Find out if reported growth for `CN(C)c1nc(NCCNS(=O)(=O)c2ccc(C(=O)/C=C/c3ccc(C(F)(F)F)cc3)cc2)nc(Nc2ccc(F)cc2)n1` is less than 30%
Return: criterion met

Enquiry: # check: growth < 30% for `NS(=O)(=O)c1ccc(N=Nc2c(O)n(CC(=O)Nc3ccccc3Cl)c3ccccc23)cc1`
Return: criterion met

Enquiry: For `COc1cc(/C=C/C(=O)c2nnn(-c3ccc(Cl)cc3)c2C)cc(OC)c1OC` , is the recorded growth below the cut-off of 30%?
Return: criterion not met

Enquiry: Just wondering, is growth of CC1(C)CC[C@]2(C(=O)O)CC[C@]3(C)C(=CCC4[C@@]5(C)C[C@@H](O)[C@@H]6OC(c7ccccc7F)OC[C@@]6(C)C5CC[C@]43C)C2C1 (stereo partly drawn) below 30%?
Return: criterion met

Enquiry: Check if growth falls below 30% for `O=C(/C=C/Nc1ccc2oc(=O)ccc2c1)c1cc2cc(Br)ccc2oc1=O` .
Return: criterion not met

Enquiry: Please state whether growth is below 30% for Cc1sc(C(NC(=O)OCCn2c([N+](=O)[O-])cnc2C)C(F)(F)Cl)nc1-c1ccc(OC(F)(F)F)cc1 (stereo not drawn)
Return: criterion met

Enquiry: I wonder whether `COc1cc(/C=C/C(=O)c2ccccc2)ccc1Oc1nc(Nc2ccc(F)cc2)nc(N(C)C)n1` has growth below 30%. Can you tell?
Return: criterion not met

Enquiry: # strict comparison: is reported growth < 30%? input = `COc1cc2oc(-c3cccc(C(=O)Nc4ccc(Cl)cc4)c3)cc(=O)c2c(OCC(=O)N[C@@H](Cc2ccccc2)C(=O)O)c1OC`
Return: criterion not met

====

Please go through the items and note down their growth.
- Test system: IGROV1 ovarian
- test: NCI-60 one-dose screen, 48 h (100 = growth as untreated, 0 = no growth, -100 = all killed)
- condition_parameters: 10 µM unless noted
- Experimental: Growth inhibition of the IGROV1 human tumor cell line is measured as a screen for anti-cancer activity. Cells are grown in 96 well plates and exposed to the test compound for 48 hours. Compounds are tested at a single concentration, which is 10^-5 M for most compounds. The reported endpoint is percent growth (GI% or GIPRCNT), where numbers from 0 - 100% represent growth inhibition, and numbers from -100% - 0 represent cell death. For example, a value of 40 represents 60% growth inhibition. […]
The panel holds about 83,000 compounds, 20% with a hit somewhere; the sample as a whole holds those more often.
One number for each entry, in %.

N#Cc1c(-c2cccc(Cl)c2Cl)cc(-c2ccc3ccccc3c2)[nH]c1=O 65.1
COc1cc2oc(-c3cccc(C(=O)Nc4cccc([N+](=O)[O-])c4)c3)cc(=O)c2c(OC)c1OC 22.1
COc1ccc2c(c1)C(=N/N=C(\C)c1ccc(OC)c(S(N)(=O)=O)c1)C(=O)N2 107
S=c1c2ccccc2nc2n1CCc1c-2[nH]c2ccccc12 48.2
CCN1CCN(Cc2ccc(C(=O)Nc3cccc(C#Cc4cccc5[nH]nc(N)c45)c3)cc2C(F)(F)F)CC1 -44.7

Moving on to another molecule below.
Enquiry: State the recorded growth for this entry: `Cc1cc(C)cc(C(=O)Nc2cccc(-c3cn(-c4ccc(S(N)(=O)=O)cc4)nn3)c2)c1`
Return: 15.4

====

- Tested on: OVCAR-5 ovarian
- test: NCI-60 one-dose screen, 48 h (100 = growth as untreated, 0 = no growth, -100 = all killed)
- condition_parameters: 10 µM unless noted
This is part of a sample that, as a whole, favours compounds with a hit. Of some 83,000 tested, about 20% had one in any assay.
Classify by measured growth: 1 if it is equal to or exceeds 70%, 0 if it is smaller.

These solved cases illustrate the format of a correct answer.
molecule	group
Cn1cc(-c2nnc(N)nc2-c2c[nH]c3ccc(Br)cc23)c2cc(Br)cnc21	1
CN(C)c1ccnc(CNCCSC2(c3ccccc3)c3ccccc3C=Cc3ccccc32)c1	0
N#Cc1c(-c2ccc(Br)cc2)nc2n[nH]c(-c3ccc(Br)cc3)c2c1-c1ccc(F)cc1	1
COc1ccc(CCC2c3c(cc4c(c3OC)OCO4)CCN2C)cc1 (centres undefined)	0
Cc1cnc(C(=O)NNc2nc3cc(F)ccc3n3c(C(=O)N4CC5CC(C4)N5)ccc23)cn1	0
O=C(NNc1nc2cc(F)ccc2n2c(CN3CC4CNCC4C3)ccc12)c1ccncn1 (centres undefined)	0

Enquiry: Would you say `O=C(O)Cn1c(O)c(/C=C2/C=c3cc4c(cc3=NC2=O)OCCO4)sc1=S` shows growth at minimum 70%?
Return: 1

Enquiry: // inclusive: growth at least 70%? input: CN(C)CCOc1ccc(C(=O)C2[C@H](c3ccc(Cl)cc3)[C@@H](c3ccccc3)NC23C(=O)Nc2ccccc23)cc1 (some centres undefined)
Return: 1

Enquiry: Hi, just wondering whether `CN(C)c1ccnc(CNCCSC2(c3ccc(C(F)(F)F)cc3)c3ccccc3CCc3ccccc32)c1` shows growth of 70% or higher.
Return: 0

Enquiry: # check: growth of `Nc1nc(C(F)(F)F)cs1` is greater than or equal to 70%
Return: 1

====

- Tested on: SK-MEL-5 melanoma
- test: NCI-60 one-dose screen, 48 h (100 = growth as untreated, 0 = no growth, -100 = all killed)
- condition_parameters: 10 µM unless noted
This is part of a sample that, as a whole, favours compounds with a hit. Of some 83,000 tested, about 20% had one in any assay. Activity calls are given as the source filed them. Rule for the calls: active = growth percent below 10; inactive = the rest.
Would you kindly list growth for each of these molecules?

Examples with answers:
molecule	result
CCC(C)(C)c1ccc(OCCCCN2CCN(c3ccncc3)CC2)cc1	-99.4% (active)
Cc1cc2c(cc1Cl)C(=O)/C(=C/c1ccc(F)cc1)O2	93% (inactive)
COc1ccc(/C=C/c2nc3ccccc3n3c(-c4ccc(Cl)cc4)nnc23)cc1	98.6% (inactive)
CC1=C(C(=O)OCc2ccccc2)C(c2ccc(-n3cncn3)cc2)n2c(nc3ccccc32)N1 (stereo not drawn)	39.7% (inactive)
CC(=O)Nc1ccc(C(=O)NC(=S)Nc2ccc(S(N)(=O)=O)cc2)cc1	88.3% (inactive)

For every record below, what is its growth?
1. COc1cc(C2CC(c3cc(OC)c(OC)c(OC)c3)=NN2C(C)=O)ccc1OCc1ccc(F)cc1 (stereo not drawn)
2. O=C(Cn1c2c(sc1=O)[C@H]1[C@@H](O)[C@@H](O)[C@H](O)[C@@H]1CS2)N1CCOCC1
3. S=C(NCCc1ccccc1)Nc1ccc(OCc2nc3ccccc3[nH]2)cc1
4. C=C1CC[C@@H]2[C@]3(C)COC(c4ccco4)O[C@@H]3CC[C@@]2(C)[C@@H]1C/C=C1/C(=O)OCC1OC(C)=O (stereo partly drawn)
5. COc1c(F)ccc(C(=O)Nc2ccc3nc(NC(=O)C4CCCN(S(=O)(=O)C5CC5)C4)sc3c2)c1F (stereo not drawn)
6. CN(C)c1nc(NCCNS(=O)(=O)c2ccc(C(=O)/C=C/c3ccc(F)cc3)cc2)nc(Nc2ccc(F)cc2)n1
7. Cc1ccc(NCC(=O)Cn2cc(COc3ccc(C=Nc4cnc5ccccc5c4)cc3)nn2)cc1
8. C=C1CC[C@@H]2[C@]3(C)COC(c4cn[nH]c4-c4cccc(Br)c4)O[C@@H]3CC[C@@]2(C)[C@@H]1C/C=C1/C(=O)OCC1O (stereo partly drawn)

Return:
1. 29.7% (inactive)
2. 102% (inactive)
3. 102% (inactive)
4. 43.9% (inactive)
5. -43.8% (active)
6. -99.6% (active)
7. 102% (inactive)
8. -99.6% (active)

Each of the following entries comes with a recorded value; kindly state growth for each.
1. COc1ccc(NC(=O)c2sc3nc(C(C)C)ccc3c2N)cc1
2. COc1ccc(-c2ccnc(SCc3cc4cc(Cl)ccc4[nH]c3=O)n2)cc1
3. Cc1ccc(C2CC(c3ccc(S(=O)(=O)NCCNc4nc(Nc5ccc(F)cc5)nc(N(C)C)n4)cc3)=Nc3c(N)nc(N)nc3N2)cc1 (stereo not drawn)
4. Cc1occc1C(=O)NN1C(=O)/C(=C/C=C/c2ccc([N+](=O)[O-])o2)SC1=S
5. S=c1c2ccccc2nc2n1CCc1c-2[nH]c2ccccc12

Return:
44.6% (inactive)
37.4% (inactive)
29.1% (inactive)
-96.7% (active)
67% (inactive)
